As shown below, each of these compounds has a reported RLM (percentage of the remaining compound after 30 minutes of incubation) value.
assay-details: Stability test in liver microsomes (rat)
Assay type: in vitro ADME
run-parameters: rat liver microsomes 0.5 mg/mL, compound 1 μM, 37° C.
Numeric answer only, unit % assumed.

[
  {
    "compound": "C[C@H]1CN(C2COC2)CCN1c1ccc(Nc2cc(-c3ccnc(-n4ccn5c6c(cc5c4=O)CCC6)c3CO)cn(C)c2=O)nc1 [Compound 64]",
    "quantitative-result": 92.1
  }
]

Record C[C@H]1CN(C2COC2)CCN1c1ccc(Nc2cc(-c3ccnc(-n4cnn5c6c(cc5c4=O)CC(C)(C)C6)c3CO)cn(C)c2=O)nc1 [Compound 63] , field RLM (percentage of the remaining compound after 30 minutes of incubation): 89.6

Record C[C@H]1CN(C2COC2)CCN1c1ccc(Nc2cc(-c3ccnc(-n4ccn5c6c(cc5c4=O)CC(C)(C)C6)c3CO)nn(C)c2=O)nc1 [Compound 22] , field RLM (percentage of the remaining compound after 30 minutes of incubation): 95.6

Record C[C@H]1CN(C2COC2)CCN1c1ccc(Nc2cc(-c3ccnc(-n4ccn5c6c(cc5c4=O)CC(C)(C)C6)c3CO)cn(C)c2=O)nc1 [Compound 19] , field RLM (percentage of the remaining compound after 30 minutes of incubation): 92.7

Record C[C@H]1CN(C2COC2)CCN1c1ccc(Nc2cc(-c3ccnc(N4CCn5c(cc6c5CC(C)(C)C6)C4=O)c3CO)cn(C)c2=O)nc1 [GDC-0853, fenebrutinib, reference compound] , field RLM (percentage of the remaining compound after 30 minutes of incubation): 81.0

Record C[C@H]1CN(C2COC2)CCN1c1ccc(Nc2cc(-c3ccnc(-n4ccn5c6c(cc5c4=O)CCC(F)(F)C6)c3CO)cn(C)c2=O)nc1 [Compound 56] , field RLM (percentage of the remaining compound after 30 minutes of incubation): 93.7

Record C[C@H]1CN(C2COC2)CCN1c1cnc(Nc2cc(-c3ccnc(-n4ccn5c6c(cc5c4=O)CC(C)(C)C6)c3CO)cn(C)c2=O)nc1 [Compound 44] , field RLM (percentage of the remaining compound after 30 minutes of incubation): 97.1

Record C[C@H]1CN(C2COC2)CCN1c1ccc(Nc2cc(-c3ccnc(-n4ccn5c(cc6cc(F)ccc65)c4=O)c3CO)cn(C)c2=O)nc1 [Compound 75] , field RLM (percentage of the remaining compound after 30 minutes of incubation): 84.0

Record CC1CCc2cc3c(=O)n(-c4nccc(-c5cc(Nc6ccc(N7CCN(C8COC8)C[C@@H]7C)cn6)c(=O)n(C)c5)c4CO)ccn3c2C1 (mixture of isomers) [Compound 78] , field RLM (percentage of the remaining compound after 30 minutes of incubation): 91.8

Record C[C@H]1CN(C2COC2)CCN1c1ccc(Nc2cc(-c3ccnc(-n4ccn5c(cc6ccccc65)c4=O)c3CO)cn(C)c2=O)nc1 [Compound 74] , field RLM (percentage of the remaining compound after 30 minutes of incubation): 87.7
